Target: T1, OsWRKY45-DBD L150M (= OsWRKY45-2-DBD) (Oryza sativa Japonica subspecies, UniProt Q5W6D6 104-182, L150M)
T1 sequence: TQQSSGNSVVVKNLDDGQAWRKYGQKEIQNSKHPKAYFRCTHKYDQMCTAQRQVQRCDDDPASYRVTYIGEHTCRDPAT
Test: BLI
measureName: Kd (µM)
The response must be a number in µM with no trailing unit.

input: What value of measured Kd is listed for DNA-1 (W-box DNA) (dsDNA) DNA 1: GATATTTGACCGGA DNA 2: TCCGGTCAAATATC ?
output: 7.7
